Sourced from patent US20230271956A1

Catalogue of IC50 readings, one per entry.
Target: human rec ACSS2 (Homo sapiens)
Construct: myc (C)
Sequence (Q9NR19 whole entry): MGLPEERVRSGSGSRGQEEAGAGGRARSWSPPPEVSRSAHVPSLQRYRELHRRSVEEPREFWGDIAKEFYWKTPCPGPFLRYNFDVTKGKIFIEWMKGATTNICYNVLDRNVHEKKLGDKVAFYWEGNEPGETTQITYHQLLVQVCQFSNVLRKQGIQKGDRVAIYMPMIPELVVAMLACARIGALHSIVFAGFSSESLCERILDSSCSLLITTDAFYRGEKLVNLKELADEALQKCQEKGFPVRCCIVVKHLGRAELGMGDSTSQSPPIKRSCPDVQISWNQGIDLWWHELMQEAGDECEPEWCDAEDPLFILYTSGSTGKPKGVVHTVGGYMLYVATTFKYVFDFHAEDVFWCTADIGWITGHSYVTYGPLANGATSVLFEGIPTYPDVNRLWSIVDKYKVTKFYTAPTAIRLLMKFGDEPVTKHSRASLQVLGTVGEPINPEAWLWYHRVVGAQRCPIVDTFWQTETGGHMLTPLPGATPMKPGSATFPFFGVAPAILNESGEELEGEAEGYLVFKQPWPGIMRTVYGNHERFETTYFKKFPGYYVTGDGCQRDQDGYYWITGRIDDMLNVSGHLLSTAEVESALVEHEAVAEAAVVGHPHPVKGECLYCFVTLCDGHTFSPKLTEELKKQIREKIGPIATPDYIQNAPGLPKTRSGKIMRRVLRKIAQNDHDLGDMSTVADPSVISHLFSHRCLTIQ
Test: Biochemical activity ACSS2 assay (AMP-Glo)
Conditions: human recombinant ACSS2, AMP-Glo, 180 min at 37° C.
Parameter: IC50

Compound	Target	Parameter	Result
CCn1cc(NC(=O)c2cc3c(nc2Cl)nc(C(O)(c2ccccc2F)c2ccccc2F)n3CC)cn1	human rec ACSS2 (Homo sapiens)	IC50	1 to 10 nM
CCc1c(C(O)(c2ccccc2)c2ccccc2)nc2cc(Cl)c(C(=O)Nc3ncn(CC)n3)cn12	human rec ACSS2 (Homo sapiens)	IC50	1 to 10 nM
CCc1nc(CNC(=O)c2cc3c(nc2OC)nc(C(O)(c2ccccc2)c2ccccc2)n3CC)no1	human rec ACSS2 (Homo sapiens)	IC50	100 to 10000 nM
CCn1cnc(NC(=O)c2cc3c(nc2OC)nc(C(O)(c2ccccc2C)c2ccccc2C)n3CC)n1	human rec ACSS2 (Homo sapiens)	IC50	10 to 100 nM
[2H]c1c([2H])c([2H])c(C(O)(c2c([2H])c([2H])c([2H])c([2H])c2[2H])c2nc3nc(OC)c(C(=O)Nc4ncn(CC)n4)cc3n2CC)c([2H])c1[2H]	human rec ACSS2 (Homo sapiens)	IC50	0.01 to 1 nM
CCn1cnc(NC(=O)c2cc3c(nc2C)nc(C(O)(c2ccccc2F)c2ccc(OC(F)F)cc2F)n3CC)n1 (single isomer, unassigned) [Compound 95]	human rec ACSS2 (Homo sapiens)	IC50	10 to 100 nM
CCn1ccc(NC(=O)c2cc3c(nc2Cl)nc(C(O)(c2ccccc2)c2ccccc2)n3CC)n1	human rec ACSS2 (Homo sapiens)	IC50	1 to 10 nM
CCn1cnc(NC(=O)c2cc3c(nc2OC)nc(C(O)(c2ccccc2)c2cnn(C)c2)n3CC)n1 (racemic)	human rec ACSS2 (Homo sapiens)	IC50	100 to 10000 nM
CCn1c(C(O)(c2ccccc2)c2ccccc2)nc2ccc(C(=O)NC[C@@H](C)O)cc21 [Reference Compound, reference compound]	human rec ACSS2 (Homo sapiens)	IC50	100 to 10000 nM
CCn1cnc(NC(=O)c2cc3c(nc2OC)nc(C(O)(c2ccccc2)c2ccccc2)n3CC)c1	human rec ACSS2 (Homo sapiens)	IC50	1 to 10 nM
CCc1c(C(O)(c2ccccc2F)c2ccccc2F)nn2cc(Cl)c(C(=O)Nc3ncn(CC)n3)cc12	human rec ACSS2 (Homo sapiens)	IC50	1 to 10 nM
CCn1cnc(NC(=O)c2cc3c(nc2OC)nc(C(O)(c2ccccc2)c2ccccc2C)n3CC)n1 (racemic)	human rec ACSS2 (Homo sapiens)	IC50	1 to 10 nM
CCn1cnc(NC(=O)c2cc3c(nc2OC)nc(C(O)(c2ccccc2)c2ccc(OC(F)F)cc2)n3CC)n1 (single isomer, unassigned) [Compound 72]	human rec ACSS2 (Homo sapiens)	IC50	1 to 10 nM
CCn1cnc(NC(=O)c2cc3c(nc2C)nc(C(O)(c2ccccc2)c2ccccc2)n3CC)n1	human rec ACSS2 (Homo sapiens)	IC50	1 to 10 nM
CCn1c(C(O)(c2ccccc2)c2ccccc2)nc2nc(OC)c(C(=O)Nc3ncn(CCO)n3)cc21	human rec ACSS2 (Homo sapiens)	IC50	1 to 10 nM
CCc1c(C(O)(c2ccccc2)c2ccccc2)nc2cc(OC)c(C(=O)Nc3ncn(CC)n3)cn12	human rec ACSS2 (Homo sapiens)	IC50	1 to 10 nM
